Test: yeast display, Sf9 membrane polyspecificity reagent, FACS + sequencing; frameworks hold sequencing errors

{"ITEM SEQUENCE": "QVQLVESGGGLVQAGGSLRLSCAASGRIFVEYAMGWYRQAPGKERELVAAINSGGSTNYADSVKGRFTISRDNAKNTVYLQMNSLKPEDTAVYYCNKDTLVYGYVQDYEYWGQGTQVTVSS", "polyreactivity (PSR sort gate)": "low polyreactivity"}
{"ITEM SEQUENCE": "QDQLVESGGGLVQAGCSLRLTCAASGSTFSYYAMGWYRQAPGKERELVADISWSGGSTYYADSVKGRFTISRDNAKNTVYLQMNSLKAAHTAVYYCAARGGSVLRYGKYYYWGQGTQVTVSS", "polyreactivity (PSR sort gate)": "low polyreactivity"}
{"ITEM SEQUENCE": "QVQLVESGGGLVQAGGSLRLSCAASGLTILPNAMGWYRPAPGKERELVAAISWGDGNTYYADSVKGRFTISRDNAKNTVYLQMNSLKPEDTAVYYCAADVIKSRTYDYWGQGTQVTVSS", "polyreactivity (PSR sort gate)": "low polyreactivity"}
{"ITEM SEQUENCE": "QVQLVESGGGLVQAGGSLRLSCAASGSTFQNYAMGWYRQAPGKERELVATINWSGGNTYYADSVKGRFTISRDNAKNTVYLQMNSLKPEDTAVYYCAADSPRYYYWVGPYYGYDYWGQGTQVTVSS", "polyreactivity (PSR sort gate)": "high polyreactivity"}
{"ITEM SEQUENCE": "QVQLVESGGGLVQAGGSLRLSFAASGSIINAYAMGWYRQAPGKERELVAAINSGGTTYYADSVKGRFTISRDNAKNTVYLQLNSLKPEDTAVYYCAKTRSYGRSGVSRRDGFYYWGQGTQVTVSS", "polyreactivity (PSR sort gate)": "high polyreactivity"}
{"ITEM SEQUENCE": "QVQLVESGRGLVQAGGSLRLSCAASGSTISFYAMGWYRQAPGKERELVAAISFRGGRTYYADSVKGRFTISRDNAKNTVYLQMNSLKPEDTAVYYCNAERYYRYWDKQEDYWGQGTHVTVSS", "polyreactivity (PSR sort gate)": "high polyreactivity"}
{"ITEM SEQUENCE": "QVQLVESGGGLVQAGGSLRLSCAASGRTFRYNAMGWYRQAPGKERELVAAINWNGGSTYYADSVKGRFTISRDNAKNTGYLQMHSLKPEDTAVYYCNADFYHRYDWGQGTQVTGSS", "polyreactivity (PSR sort gate)": "high polyreactivity"}
{"ITEM SEQUENCE": "QVQLVESGGGLVQAGGSLRLSCAASGSIFSVYARGWSRQAPGKERELVAAITSGTSTYADSVKGRFTISRDNAKNTVYLQMNSLKPEDTAVYACAAESGSPGYYYWGQGTQVTVSS", "polyreactivity (PSR sort gate)": "low polyreactivity"}
{"ITEM SEQUENCE": "QVQLVESGGGLVQAGGSLLLSCAASGRIFRYNAMGWYRQAPGKERELVAAISWTVGRTYYADSVKGRFTISRDNAMNTVYLQMNSLKPEDTAVYYCATYFRVWYRSYDYWGQGTQVTVSS", "polyreactivity (PSR sort gate)": "high polyreactivity"}
{"ITEM SEQUENCE": "QVQLVESGGGLVQAGGSLRLSCAASGFTFGTYAMGWYRQAPGKERELVAAISKRGGSTYYADSVKGRFTISRDNAKNTVYLQMNSLKPEDTAVYYCATGSYTTYGYGYWGQGTQVTVSS", "polyreactivity (PSR sort gate)": "high polyreactivity"}

Numbers sourced from the nanobody polyreactivity screen of Harvey et al. (2022).
